Test system: LC3B
Run Description: LC3B immunostaining autophagy assay in Huh-7.5 cells
Format: cell-based, human
Test Context: Homo sapiens, Huh7.5, read-out: Autophagy EC50
Quantity Name: EC50 (µM)
Write the value in µM as a bare number.

stdin: Need EC50, item OC(c1cc(C(F)(F)F)nc2c(C(F)(F)F)cccc12)C1CCCCN1 (stereo not shown) [Mefloquine]
stdout: 7.3

====

// CC50 lookup, one value per entry
Run Description: in vitro
Test Context: African green monkey, CPE CC50, uninfected Vero E6, 72 h, Cell Titer-Glo

stdin: Returns the measured CC50 for the input molecule. Input: CCN(CC)CCCC(C)Nc1ccnc2cc(Cl)ccc12 (stereo not drawn)
stdout: > 30 µM

stdin: Which CC50 reading was recorded for the molecule CCN(CCO)CCCC(C)Nc1ccnc2cc(Cl)ccc12 (stereo not drawn) [Hydroxychloroquine, hydroxychloroquine] ?
stdout: > 30 µM

stdin: Request the reported CC50 associated with CN(C)CCCN1c2ccccc2CCc2ccc(Cl)cc21
stdout: > 30 µM
